Cited source for all entries: patent US20240316038A1

Molecular target: APOL1 G2 (Homo sapiens, UniProt O14791, DEL388-389)
Construct: expressed in transfected cells; host or cells: HEK293 T-REx clonal lines: HEK T-REx/GCaMP6f/APOL1 G2 K6.3 in A1, HEK293/T-REx APOL1 G2/clone #2 in A2
Sequence (O14791 with tags, fused parts or gaps DEL388-389): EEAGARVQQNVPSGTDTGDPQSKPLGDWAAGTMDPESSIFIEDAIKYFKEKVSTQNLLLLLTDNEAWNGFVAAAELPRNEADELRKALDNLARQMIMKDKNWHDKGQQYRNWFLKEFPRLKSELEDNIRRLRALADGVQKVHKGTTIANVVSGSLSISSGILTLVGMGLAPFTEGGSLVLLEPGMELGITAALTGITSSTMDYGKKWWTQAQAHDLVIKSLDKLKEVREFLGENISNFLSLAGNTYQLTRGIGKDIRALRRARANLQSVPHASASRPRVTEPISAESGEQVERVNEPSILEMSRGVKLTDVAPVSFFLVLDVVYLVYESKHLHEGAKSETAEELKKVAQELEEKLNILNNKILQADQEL
Assay: Rescue of HEK293 cell death caused by overexpression of APOL1 (CellTiter-Glo luminescence), HEK293/T-REx APOL1 G2/clone #2
Type: cell-based
Details: reversal of cell death caused by overexpression of APOL1; geometric mean of at least 2 assay runs, † = single assay run (technical duplicate)
pEC50: −log10 of the molar value.
Quick rule: pEC50 of at least 6 means MET, below that means NOT MET.

>  <compound>
CS(=O)(=O)c1ccc(OC[C@@H]2CN(CCc3cc(Cl)cc(Cl)c3)CCN2)cc1

>  <tgt>
APOL1 G2 (Homo sapiens, UniProt O14791, DEL388-389)

>  <class_label>
MET

$$$$
>  <compound>
C[C@H]1CN(CCc2cccc(Cl)c2)C[C@@H]1COc1ccc(S(C)(=O)=O)cc1 (single isomer, unassigned)

>  <tgt>
APOL1 G2 (Homo sapiens, UniProt O14791, DEL388-389)

>  <class_label>
MET

$$$$
>  <compound>
CS(=O)(=O)c1ccc(OC[C@@H](O)CN2CCCCC2Cc2cccc(Cl)c2)cc1 (some centres unmarked) [Compound 62]

>  <tgt>
APOL1 G2 (Homo sapiens, UniProt O14791, DEL388-389)

>  <class_label>
MET

$$$$
>  <compound>
CN(c1ccc(OC[C@@H](O)CNCCc2cccc(Cl)c2)cc1)S(C)(=O)=O

>  <tgt>
APOL1 G2 (Homo sapiens, UniProt O14791, DEL388-389)

>  <class_label>
NOT MET

$$$$
>  <compound>
C[C@@H]1CN(CCc2cc(Cl)cc(C#N)c2)C[C@H]1COc1ccc(S(=O)(=O)CCCS(C)(=O)=O)cc1

>  <tgt>
APOL1 G2 (Homo sapiens, UniProt O14791, DEL388-389)

>  <class_label>
MET

$$$$
>  <compound>
CN(c1ccc(OC[C@@H](O)CN2CCC(c3cccc(Cl)c3)C2)cc1)S(C)(=O)=O (single isomer, unassigned) [Compound 76]

>  <tgt>
APOL1 G2 (Homo sapiens, UniProt O14791, DEL388-389)

>  <class_label>
NOT MET

$$$$
>  <compound>
C[C@@H]1CN(CCc2cccc(Cl)c2)C[C@H]1COc1ccc(S(=O)(=O)CCCS(C)(=O)=O)cc1 (single isomer, unassigned)

>  <tgt>
APOL1 G2 (Homo sapiens, UniProt O14791, DEL388-389)

>  <class_label>
NOT MET

$$$$
>  <compound>
C[C@@H]1CN(CCc2cc(Cl)cc(C#N)c2)C[C@H]1COc1ccc(S(=O)(=O)C2CNC2)cc1

>  <tgt>
APOL1 G2 (Homo sapiens, UniProt O14791, DEL388-389)

>  <class_label>
MET

$$$$
>  <compound>
CC(CN1C[C@@H](COc2ccc(S(C)(=O)=O)cc2)[C@H](C)C1)c1cc(Cl)cc(C#N)c1 (some centres unmarked) [Compound 146]

>  <tgt>
APOL1 G2 (Homo sapiens, UniProt O14791, DEL388-389)

>  <class_label>
MET

$$$$
>  <compound>
CN(c1ccc(OCC2CCCN(CCc3cccc(Cl)c3)C2)cc1)S(C)(=O)=O (single isomer, unassigned) [Compound 8]

>  <tgt>
APOL1 G2 (Homo sapiens, UniProt O14791, DEL388-389)

>  <class_label>
MET

$$$$
>  <compound>
C[C@@H]1C[C@H](COc2ccc(S(C)(=O)=O)cc2)CN1CC(O)c1cc(C#N)cc(C#N)c1 (single isomer, unassigned) [Compound 118]

>  <tgt>
APOL1 G2 (Homo sapiens, UniProt O14791, DEL388-389)

>  <class_label>
NOT MET

$$$$
>  <compound>
C[C@@H]1CC[C@H](COc2ccc(S(C)(=O)=O)cc2)CN1CCc1cccc(Cl)c1

>  <tgt>
APOL1 G2 (Homo sapiens, UniProt O14791, DEL388-389)

>  <class_label>
MET

$$$$
